Values compiled from the supplement of paper PMC11451515.

# Tested on: P12-Ichikawa
# assayRemarks: cell viability relative to DMSO control; higher = less cytotoxic
# experimentalParameters: RPMI 5 mM glucose + 10% FBS; 48 h; 0.0632 µM
# Lookup of reported cell viability keyed by entry

>  <molecule>
CCC1=C2CN3C(=O)\C4=C(/C=C3/C2=NC5=CC=C(O)C=C15)[C@@](O)(CC)C(=O)OC4

>  <cell viability / %>
8.05

$$$$
>  <molecule>
O=C(O)c1nn(Cc2ccc(Cl)cc2Cl)c2ccccc12

>  <cell viability / %>
86.1

$$$$
>  <molecule>
Cc1n[nH]c2ccc(-c3cncc(OC[C@@H](N)Cc4c[nH]c5ccccc45)c3)cc12

>  <cell viability / %>
88.5

$$$$
>  <molecule>
Clc1ccc(C(Cn2ccnc2)OCc2ccc(Sc3ccccc3)cc2)c(Cl)c1 (stereo unspecified)

>  <cell viability / %>
116

$$$$
>  <molecule>
CC[P](CC)(CC)=[Au][S][C@@H]1O[C@H](COC(C)=O)[C@@H](OC(C)=O)[C@H](OC(C)=O)[C@H]1OC(C)=O

>  <cell viability / %>
115

$$$$
>  <molecule>
CN(C)[C@H]\1[C@@H]2[C@@H](O)[C@H]3\C(=C(O)/[C@]2(O)C(=O)\C(=C1O)C(N)=O)C(=O)C4=C(C=CC=C4O)[C@@]3(C)O

>  <cell viability / %>
127

$$$$
>  <molecule>
CC(C)(OCc1nn(Cc2ccccc2)c2ccccc12)C(=O)O

>  <cell viability / %>
101

$$$$
>  <molecule>
CO[C@H]1C[C@H]2OC[C@@]2(OC(C)=O)[C@H]3[C@H](OC(=O)C4=CC=CC=C4)[C@]5(O)C[C@H](OC(=O)[C@H](O)[C@@H](NC(=O)OC(C)(C)C)C6=CC=CC=C6)/C(=C(/[C@@H](OC)C(=O)[C@]13C)C5(C)C)C

>  <cell viability / %>
11.6

$$$$
>  <molecule>
COc1cc2nc(N3CCN(C(=O)c4ccco4)CC3)nc(N)c2cc1OC

>  <cell viability / %>
98.2

$$$$
>  <molecule>
CCc1nc(C(N)=O)c(Nc2ccc(N3CCC(N4CCN(C)CC4)CC3)c(OC)c2)nc1NC1CCOCC1

>  <cell viability / %>
112

$$$$
>  <molecule>
Oc1ccc(C2CNCCc3c2cc(O)c(O)c3Cl)cc1 (stereo unspecified)

>  <cell viability / %>
86.5

$$$$
>  <molecule>
O=C1N\N=C(\C[C@@H]2CCN(C2)C(=O)C3CC3)N1C4=CC=C(C=C4)C5=CC=C6OC=CC6=C5

>  <cell viability / %>
87.6

$$$$
>  <molecule>
CC1(C)CCC(=C(\C1)C2=CC=C(Cl)C=C2)/CN3CCN(CC3)C4=CC(=C(C=C4)C(=O)N[S+]([O-])(=O)C5=CC=C(NCC6CCOCC6)C(=C5)[N+]([O-])=O)OC7=CN=C8[NH]C=CC8=C7

>  <cell viability / %>
104

$$$$
>  <molecule>
CC/C(=C(\c1ccccc1)c1ccc(OCCN(C)C)cc1)c1ccccc1

>  <cell viability / %>
89.7

$$$$
>  <molecule>
COc1ccc(CC2SC(=O)NC2=O)cc1C(=O)NCc1ccc(C(F)(F)F)cc1 (stereo unspecified)

>  <cell viability / %>
78.9

$$$$
>  <molecule>
Cc1cccc(Nc2nc(N[C@@H]3CCCC[C@@H]3N)ncc2C(N)=O)c1

>  <cell viability / %>
117

$$$$
